# Tested on: Staphylococcus aureus 209P
# procedureText: Antibacterial activity (MIC/MBC), serial dilutions in liquid MH medium
# Assay type: cell-based
Quick list: MBC per entry.
assayMetric: MBC (µM)

| moleculeSmiles | reportedMeasurement |
| --- | --- |
| C=CC1=C(C)c2cc3[n-]c(cc4nc(cc5[n-]c(cc1n2)c(C)c5CCC(=O)NCCC(=O)NCCc1c[nH]cn1)C(CCC(=O)NCCC(=O)NCCc1c[nH]cn1)=C4C)c(C)c3C=C.[Cl-].[Fe+3] | 400 |
| C=CC1=C(C)c2cc3[n-]c(cc4nc(cc5[n-]c(cc1n2)c(C)c5CCC(=O)NCCO)C(CCC(=O)NCCO)=C4C)c(C)c3C=C.[Cl-].[Fe+3] | 3.2 |

* * *

# procedureText: Solubility of tested agents (water / DMSO)
# assaySetup: water or DMSO

| compound | solubility (in words) |
| --- | --- |
| C=CC1=C(C)c2cc3[n-]c(cc4nc(cc5[n-]c(cc1n2)c(C)c5CCC(=O)N[C@@H](CCCNC(=N)N)C(=O)OC)C(CCC(=O)N[C@@H](CCCNC(=N)N)C(=O)OC)=C4C)c(C)c3C=C.[Cl-].[Fe+3] [VII] | water-soluble |
| C=CC1=C(C)c2cc3[n-]c(cc4nc(cc5[n-]c(cc1n2)c(C)c5CCC(=O)N[C@@H](CCC(=O)N[C@@H](CCCNC(=N)N)C(=O)OC)C(=O)N[C@@H](CCCNC(=N)N)C(=O)OC)C(CCC(=O)N[C@@H](CCC(=O)N[C@@H](CCCNC(=N)N)C(=O)OC)C(=O)N[C@@H](CCCNC(=N)N)C(=O)OC)=C4C)c(C)c3C=C.[Cl-].[Fe+3] [Compound XVIII] | water-soluble |

* * *

# Test system: Staphylococcus aureus No. 25923 ATCC
# procedureText: Specific activity against resistant bacterial strains
# Type: cell-based
# assaySetup: St. aureus 25923; 24 h, 36° C.
MICs for hemin derivatives against Gr+ strains values by entry
assayMetric: MICs for hemin derivatives against Gr+ strains (M)

| compound | valueUnit | comparativeSign | reportedMeasurement |
| --- | --- | --- | --- |
| C=CC1=C(C)c2cc3[n-]c(cc4nc(cc5[n-]c(cc1n2)c(C)c5CCC(=O)N[C@@H](CO)C(=O)OC)C(CCC(=O)N[C@@H](CO)C(=O)OC)=C4C)c(C)c3C=C.[Cl-].[Fe+3] [VIII] | M | = | 2.6e-06 |
| C=CC1=C(C)c2cc3[n-]c(cc4nc(cc5[n-]c(cc1n2)c(C)c5CCC(=O)N[C@@H](CCC(=O)N[C@@H](CCCNC(=N)N)C(=O)OC)C(=O)N[C@@H](CCCNC(=N)N)C(=O)OC)C(CCC(=O)N[C@@H](CCC(=O)N[C@@H](CCCNC(=N)N)C(=O)OC)C(=O)N[C@@H](CCCNC(=N)N)C(=O)OC)=C4C)c(C)c3C=C.[Cl-].[Fe+3] [Compound XVIII] | M | = | 7.8e-07 |
| C=CC1=C(C)c2cc3[n-]c(cc4nc(cc5[n-]c(cc1n2)c(C)c5CCC(=O)N[C@@H](CCCNC(=N)N)C(=O)N[C@@H](CCCNC(=N)N)C(=O)OC)C(CCC(=O)N[C@@H](CCCNC(=N)N)C(=O)N[C@@H](CCCNC(=N)N)C(=O)OC)=C4C)c(C)c3C=C.[Cl-].[Fe+3] [Compound XXI] | M | = | 5e-05 |
| C=CC1=C(C)c2cc3[n-]c(cc4nc(cc5[n-]c(cc1n2)c(C)c5CCC(=O)NCCO)C(CCC(=O)NCCO)=C4C)c(C)c3C=C.[Cl-].[Fe+3] [Compound XIV] | M | = | 5.21e-06 |
| C=CC1=C(C)c2cc3[n-]c(cc4[n-]c(cc5nc(cc1n2)C(C)=C5C=C)c(C)c4CCC(=O)O)c(CCC(=O)O)c3C.[Cl-].[Fe+3] [Hem, hemin] | M | > | 1e-05 |

meta.source: patent US8906897B2
